PROTOCOL SUMMARY: Tissue distribution study after single oral administration
Format: in vivo, Sprague-Dawley rats
STATED CONDITIONS: Sprague-Dawley, rat, lung; 4 h after oral mycelia extract 2.381 g/kg BW; read-out: Concentration in lung
MEASURE: concentration at 4 h (ng/g)

INSERT INTO assay_data (smiles_text, measure, measured) VALUES
  ('CC(C)C1=C2C3=CC=C(C=O)C[C@H](O[C@@H]4OC[C@@H](O)[C@H](O)[C@H]4O)[C@]3(C)CC[C@@]2(C)CC1', 'concentration at 4 h', 1180);

###

PROTOCOL SUMMARY: Pharmacokinetic study, erinacine A in rat plasma after oral and intravenous administration
Assay type: in vivo, Sprague-Dawley rats
STATED CONDITIONS: male, Sprague-Dawley, po; rat plasma; P.O. mycelia extract 2.381 g/kg BW (equivalent to 50 mg/kg erinacine A)
MEASURE: AUC (ng·h/mL)

INSERT INTO results (smiles_text, measure, measure_unit, measured) VALUES
  ('CC(C)C1=C2C3=CC=C(C=O)C[C@H](O[C@@H]4OC[C@@H](O)[C@H](O)[C@H]4O)[C@]3(C)CC[C@@]2(C)CC1', 'AUC', 'ng·h/mL', 7620);

###

PROTOCOL SUMMARY: Pharmacokinetic study, erinacine A in rat plasma after oral and intravenous administration
Format: in vivo, Sprague-Dawley rats
STATED CONDITIONS: male, Sprague-Dawley, po; rat plasma; P.O. mycelia extract 2.381 g/kg BW (equivalent to 50 mg/kg erinacine A)
MEASURE: Cmax (ng/mL)

INSERT INTO results (smiles_text, measure_unit, measured) VALUES
  ('CC(C)C1=C2C3=CC=C(C=O)C[C@H](O[C@@H]4OC[C@@H](O)[C@H](O)[C@H]4O)[C@]3(C)CC[C@@]2(C)CC1', 'ng/mL', 1400);

###

PROTOCOL SUMMARY: Tissue distribution study after single oral administration
Format: in vivo, Sprague-Dawley rats
STATED CONDITIONS: Sprague-Dawley, rat, large intestine; 4 h after oral mycelia extract 2.381 g/kg BW; read-out: Concentration in large intestine
MEASURE: concentration at 4 h

INSERT INTO results (smiles_text, measured) VALUES
  ('CC(C)C1=C2C3=CC=C(C=O)C[C@H](O[C@@H]4OC[C@@H](O)[C@H](O)[C@H]4O)[C@]3(C)CC[C@@]2(C)CC1', '726 ng/g');

###

PROTOCOL SUMMARY: Pharmacokinetic study, erinacine A in rat plasma after oral and intravenous administration
Format: in vivo, Sprague-Dawley rats
STATED CONDITIONS: male, Sprague-Dawley, iv; rat plasma; I.V. erinacine A 5 mg/kg
Procedure: Analysis of erinacine A concentration in samples was conducted by Agilent 1100 series HPLC system (Agilent, Waldbronn, Germany) equipped with a G1376A capillary pump and a G1313A autosampler. Chromatographic separation was carried out in an Agilent Eclipse XDB-C18 column (3.5 µm, 4.6 × 100 mm) at 25 °C. […]
MEASURE: AUC (ng·h/mL)

INSERT INTO assay_data (smiles_text, measure, measured) VALUES
  ('CC(C)C1=C2C3=CC=C(C=O)C[C@H](O[C@@H]4OC[C@@H](O)[C@H](O)[C@H]4O)[C@]3(C)CC[C@@]2(C)CC1', 'AUC', 3120);

###

PROTOCOL SUMMARY: Pharmacokinetic study, erinacine A in rat plasma after oral and intravenous administration
Type: in vivo, Sprague-Dawley rats
STATED CONDITIONS: male, Sprague-Dawley, po; rat plasma; P.O. mycelia extract 2.381 g/kg BW (equivalent to 50 mg/kg erinacine A)
MEASURE: half-life (h)

INSERT INTO assay_data (compound, measure, measure_unit, measured) VALUES
  ('CC(C)C1=C2C3=CC=C(C=O)C[C@H](O[C@@H]4OC[C@@H](O)[C@H](O)[C@H]4O)[C@]3(C)CC[C@@]2(C)CC1 [erinacine A]', 'half-life', 'h', 8.19);

###

PROTOCOL SUMMARY: Tissue distribution study after single oral administration
Format: in vivo, Sprague-Dawley rats
STATED CONDITIONS: Sprague-Dawley, rat, heart; 4 h after oral mycelia extract 2.381 g/kg BW; read-out: Concentration in heart
Protocol: The homogenates (100 μL) were then mixed with equal volume of internal standard 2,4,5-TMBA (final concentration 25 ng/mL) and 300 μL of ethyl acetate. The mixture was vortexed and centrifuged at 13,845× g for 3 min. The supernatant was removed and the residue was reconstituted with isovolumetric acetonitrile for LC-MS/MS analysis.
MEASURE: concentration at 4 h (ng/g)

INSERT INTO assay_data (smiles_text, measured) VALUES
  ('CC(C)C1=C2C3=CC=C(C=O)C[C@H](O[C@@H]4OC[C@@H](O)[C@H](O)[C@H]4O)[C@]3(C)CC[C@@]2(C)CC1', 1110);

###

PROTOCOL SUMMARY: Pharmacokinetic study, erinacine A in rat plasma after oral and intravenous administration
Assay type: in vivo, Sprague-Dawley rats
STATED CONDITIONS: male, Sprague-Dawley, rat, plasma; rats; [(AUCpo × Doseiv)/(AUCiv × Dosepo)] × 100%; po 50 mg/kg equivalent, iv 5 mg/kg; read-out: Absolute Bioavailability
MEASURE: bioavailability (%)

INSERT INTO assay_data (molecule, measured) VALUES
  ('CC(C)C1=C2C3=CC=C(C=O)C[C@H](O[C@@H]4OC[C@@H](O)[C@H](O)[C@H]4O)[C@]3(C)CC[C@@]2(C)CC1 [erinacine A]', 24.4);

###

PROTOCOL SUMMARY: Tissue distribution study after single oral administration
Type: in vivo, Sprague-Dawley rats
STATED CONDITIONS: Sprague-Dawley, rat, liver; 4 h after oral mycelia extract 2.381 g/kg BW; read-out: Concentration in liver
MEASURE: concentration at 4 h (ng/g)

INSERT INTO measurements (smiles_text, measure, measured) VALUES
  ('CC(C)C1=C2C3=CC=C(C=O)C[C@H](O[C@@H]4OC[C@@H](O)[C@H](O)[C@H]4O)[C@]3(C)CC[C@@]2(C)CC1', 'concentration at 4 h', 2830);

###

PROTOCOL SUMMARY: Tissue distribution study after single oral administration
Format: in vivo, Sprague-Dawley rats
STATED CONDITIONS: Sprague-Dawley, rat, stomach; 4 h after oral mycelia extract 2.381 g/kg BW (50 mg/kg erinacine A); read-out: Concentration in stomach
MEASURE: concentration at 4 h (ng/g)

INSERT INTO results (smiles_text, measured) VALUES
  ('CC(C)C1=C2C3=CC=C(C=O)C[C@H](O[C@@H]4OC[C@@H](O)[C@H](O)[C@H]4O)[C@]3(C)CC[C@@]2(C)CC1', 56500);

###

PROTOCOL SUMMARY: Tissue distribution study after single oral administration
Type: in vivo, Sprague-Dawley rats
STATED CONDITIONS: Sprague-Dawley, rat; oral mycelia extract 2.381 g/kg BW; read-out: Time of peak concentration in stomach, small intestine, large intestine, liver, heart, lung and kidney
MEASURE: Tmax (h)

INSERT INTO results (compound, measure_unit, measured) VALUES
  ('CC(C)C1=C2C3=CC=C(C=O)C[C@H](O[C@@H]4OC[C@@H](O)[C@H](O)[C@H]4O)[C@]3(C)CC[C@@]2(C)CC1 [erinacine A]', 'h', 4);

###

PROTOCOL SUMMARY: Pharmacokinetic study, erinacine A in rat plasma after oral and intravenous administration
Type: in vivo, Sprague-Dawley rats
STATED CONDITIONS: male, Sprague-Dawley, rat, plasma, 2.381 g/kg; oral, at 150 min; read-out: Plasma concentration, second peak
MEASURE: concentration at 150 min

INSERT INTO results (smiles_text, measured) VALUES
  ('CC(C)C1=C2C3=CC=C(C=O)C[C@H](O[C@@H]4OC[C@@H](O)[C@H](O)[C@H]4O)[C@]3(C)CC[C@@]2(C)CC1', '735 ng/mL');

###

PROTOCOL SUMMARY: Pharmacokinetic study, erinacine A in rat plasma after oral and intravenous administration
Type: in vivo, Sprague-Dawley rats
STATED CONDITIONS: male, Sprague-Dawley, rat, plasma, 2.381 g/kg; oral, at 90 min; read-out: Plasma concentration, first peak
MEASURE: concentration at 90 min

INSERT INTO assay_data (smiles_text, measure, measured) VALUES
  ('CC(C)C1=C2C3=CC=C(C=O)C[C@H](O[C@@H]4OC[C@@H](O)[C@H](O)[C@H]4O)[C@]3(C)CC[C@@]2(C)CC1', 'concentration at 90 min', '640 ng/mL');

These data points were gathered from paper PMC8347307.
